- Assayed target: UniProt:Q7Z3E1
- Protocol notes: Enzymatic assay for inhibition of PARP7: TR-FRET displacement of biotinylated Probe A from the TIPARP active site
- Condition label: Table A-1
pIC50: −log10 of the molar value.
Observation type: pIC50

Sample answers from the record:
O=c1[nH]ncc(N2Cc3ccccc3C2CO)c1C(F)(F)F (stereo not drawn) ... ≤ 6.00
C[C@@H](COCCC(=O)N1CCN(c2ccc(C#N)cn2)CC1)Oc1cn[nH]c(=O)c1Br ... > 7.00
CN1CCC(Oc2cccc3c2CN(c2cn[nH]c(=O)c2Cl)C3)CC1 ... ≤ 6.00

Query block: API: value(readout=pIC50, system=UniProt:Q7Z3E1) for record N#Cc1ccc(N2CCN(C(=O)CCO[C@@H]3COC[C@@H]3Oc3cn[nH]c(=O)c3C(F)(F)F)CC2)nc1
Result block: > 7.00

Query block: Given the entry N#Cc1ccc(N2CCN(C(=O)c3ccc(OCCc4cccc5c4CN(c4cn[nH]c(=O)c4C(F)(F)F)C5)cc3)CC2)nc1 , what pIC50 was observed with UniProt:Q7Z3E1?
Result block: > 7.00

Query block: Write down the reported pIC50 of NCC1c2ccccc2CN1c1cn[nH]c(=O)c1Cl (stereo not drawn) , test system: UniProt:Q7Z3E1.
Result block: ≤ 6.00

====

- Assayed target: UniProtKB Q7Z3E1
- Protocol notes: Enzymatic assay for inhibition of PARP7: TR-FRET displacement of biotinylated Probe A from the TIPARP active site
- Condition label: Table A-1
Reported IC50 is given for each of the following molecules.

Look over these answered cases.
COc1cc(F)c2c(c1)CN(c1cn[nH]c(=O)c1C(F)(F)F)C2 ... < 100 nM
CC(C)c1c(N2Cc3ccc(O[C@@H]4CCCNC4)cc3C2)cn[nH]c1=O ... ≥ 1000 nM
O=c1[nH]ncc(N2C[C@H]3CCCN[C@H]3C2)c1C(F)(F)F ... ≥ 1000 nM
O=C(C[C@H]1CC[C@H](COc2cn[nH]c(=O)c2Cl)O1)N1CCN(c2ncc(C(F)(F)F)cn2)CC1 (single isomer, unassigned) [Example 575 Isomer B] ... ≥ 1000 nM

Query block: IC50 of COc1cnc2c(c1)CN(c1cn[nH]c(=O)c1C(F)(F)F)C2 on UniProtKB Q7Z3E1?
Result block: < 100 nM

====

Recorded measurements of IC50, one per entry
- Assayed target: PARP7 (Homo sapiens (Human), UniProt Q7Z3E1)
- Sequence (Q7Z3E1 whole entry): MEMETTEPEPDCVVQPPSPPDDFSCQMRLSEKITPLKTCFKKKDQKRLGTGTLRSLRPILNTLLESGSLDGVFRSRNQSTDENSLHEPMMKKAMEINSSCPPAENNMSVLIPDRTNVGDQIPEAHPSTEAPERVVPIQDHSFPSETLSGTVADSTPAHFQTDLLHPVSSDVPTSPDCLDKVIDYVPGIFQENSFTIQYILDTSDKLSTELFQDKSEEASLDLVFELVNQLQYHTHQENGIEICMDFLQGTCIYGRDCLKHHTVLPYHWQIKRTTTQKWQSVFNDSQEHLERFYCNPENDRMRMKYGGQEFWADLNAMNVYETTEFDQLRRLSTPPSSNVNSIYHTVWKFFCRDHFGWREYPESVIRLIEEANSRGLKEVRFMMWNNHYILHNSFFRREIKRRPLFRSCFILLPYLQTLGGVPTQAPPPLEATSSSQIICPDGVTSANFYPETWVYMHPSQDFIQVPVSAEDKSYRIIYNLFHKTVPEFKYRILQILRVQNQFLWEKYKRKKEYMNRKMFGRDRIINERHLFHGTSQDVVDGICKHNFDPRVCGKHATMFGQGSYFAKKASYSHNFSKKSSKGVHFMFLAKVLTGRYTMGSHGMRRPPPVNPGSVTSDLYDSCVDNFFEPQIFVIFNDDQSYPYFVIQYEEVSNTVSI
- Protocol notes: Enzymatic assay for inhibition of PARP7: TR-FRET displacement of biotinylated Probe A from the TIPARP active site
- Condition label: Table A-1

Consider the worked cases shown below.
O=C(C[C@H]1CC[C@@H](COc2cn[nH]c(=O)c2C(F)(F)F)O1)N1CCN(c2ccc(C(F)(F)F)cn2)CC1 (single isomer, unassigned) [Example 545 Isomer B] ... 100 to 1000 nM
N#Cc1ccc(N2CCN(C(=O)CCOC[C@H](Nc3cn[nH]c(=O)c3C(F)(F)F)c3ccccc3)CC2)nc1 [Example 514A] ... ≥ 1000 nM

Query block: Form: Entry = O=c1[nH]ncc(N2Cc3cccc(OC4CCNCC4)c3C2)c1C(F)(F)F | System = PARP7 (Homo sapiens (Human), UniProt Q7Z3E1) | IC50 = ____
Result block: < 100 nM

====

- Assayed target: PARP7 (Homo sapiens (Human))
- Protocol notes: Enzymatic assay for inhibition of PARP7: TR-FRET displacement of biotinylated Probe A from the TIPARP active site
- Type: binding
- Condition label: Table A-1
Form field: IC50 (one value per entry).

Before answering, review these 2 worked examples.
C[C@H](CC(=O)N1CCN(c2ccc(C#N)cn2)CC1)OCCOc1cn[nH]c(=O)c1C(F)(F)F (single isomer, unassigned) [Example 538 Isomer A] ... 100 to 1000 nM
C[C@@H](COCCC(=O)N1CCN(c2ncc(F)cn2)CC1)Nc1cn[nH]c(=O)c1C(F)(F)F ... < 100 nM

Consider the additional compound presented here.
Query block: # get_value(readout='IC50', item= N#Cc1ccc(N2CCN(C(=O)CCNC[C@H]3c4ccccc4CN3c3cn[nH]c(=O)c3C(F)(F)F)CC2)nc1 [Example 146B] )
Result block: < 100 nM

====

- Assayed target: PARP7 (Homo sapiens (Human))
- Protocol notes: Enzymatic assay for inhibition of PARP7: TR-FRET displacement of biotinylated Probe A from the TIPARP active site
- Condition label: Table A-1
IC50 values, listed per item

O=C(c1cccc(OCC2CCCN2c2cn[nH]c(=O)c2C(F)(F)F)c1)N1CCn2c(nnc2C(F)(F)F)C1 (stereo not shown) [Example 436] ... 100 to 1000 nM
CS(=O)(=O)c1ccc(N2CCN(C(=O)CCOC[C@@H]3CCCN3c3cn[nH]c(=O)c3C(F)(F)F)CC2)nc1 [Example 483] ... < 100 nM

Query block: Observed IC50 on PARP7 (Homo sapiens (Human)) for O=c1[nH]ncc(N2Cc3cccc(OCCN4CCCCC4)c3C2)c1C(F)(F)F [Example 213] , please.
Result block: 100 to 1000 nM

Query block: Tell me reported IC50 for N#Cc1ccc(N2CCN(C(=O)c3cncc(OCC4c5ccccc5CN4c4cn[nH]c(=O)c4C(F)(F)F)c3)CC2)nc1 (stereo not shown) [Example 352] , tested with PARP7 (Homo sapiens (Human)).
Result block: < 100 nM

Query block: Query for PARP7 (Homo sapiens (Human)): what IC50 does the record show for N#Cc1ccc(N2CCN(C(=O)CCOC[C@@H](Nc3cn[nH]c(=O)c3C(F)(F)F)c3ccncc3)CC2)nc1 [Example 527A] ?
Result block: < 100 nM

Query block: Request - read-out IC50 | tested on PARP7 (Homo sapiens (Human)) | compound O=C(CCOCCOc1cn[nH]c(=O)c1Cl)N1CCN(c2ncc(C(F)(F)F)cn2)CC1 [Example 520]
Result block: < 100 nM

Query block: Provide the documented IC50 with PARP7 (Homo sapiens (Human)) as the system for O=c1[nH]ncc(N2Cc3c(F)ccc(OCCN4CCOCC4)c3C2)c1C(F)(F)F [Example 286]
Result block: < 100 nM

Query block: Quick check: IC50 on PARP7 (Homo sapiens (Human)), item CC(=O)N1CCC(Oc2cc(F)c3c(c2)CN(c2cn[nH]c(=O)c2C(F)(F)F)C3)CC1 [Example 4] ?
Result block: < 100 nM

Query block: Notebook: pull reported IC50 for PARP7 (Homo sapiens (Human)), entry COC[C@H](COCCC(=O)N1CCN(c2ncc(C(F)(F)F)cn2)CC1)Oc1cn[nH]c(=O)c1C(F)(F)F (single isomer, unassigned) [Example 570 Isomer B]
Result block: 100 to 1000 nM

Query block: # query: IC50 | item C[C@@H](COCCC(=O)N1CCC(c2ccc(C#N)cn2)CC1)Oc1cn[nH]c(=O)c1C(F)(F)F [Example 658] | system: PARP7 (Homo sapiens (Human))
Result block: < 100 nM

====

- Assayed target: UniProt Q7Z3E1
- Protocol notes: Enzymatic assay for inhibition of PARP7: TR-FRET displacement of biotinylated Probe A from the TIPARP active site
- Condition label: Table A-1
pIC50: −log10 of the molar value.
Observation type: pIC50

// below: answered compounds
NCCOc1ccc2c(n1)CN(c1cn[nH]c(=O)c1C(F)(F)F)C2 [Example 317, formic acid] ... 6.00 to 7.00
N#Cc1ccc(N2CCN(C(=O)c3ccc(OCC4c5ccccc5CN4c4cn[nH]c(=O)c4C(F)(F)F)cc3)CC2)nc1 (centres unmarked) [Example 371] ... 6.00 to 7.00
CN1CCN(CCOc2cccc3c2CN(c2cn[nH]c(=O)c2C(F)(F)F)C3)CC1 [Example 226] ... > 7.00
CO[C@H](C)[C@@H](COCCC(=O)N1CCN(c2ncc(C(F)(F)F)cn2)CC1)Nc1cn[nH]c(=O)c1C(F)(F)F [Example 607] ... > 7.00
C[C@@H](COCCC(=O)N1CCN(c2ccc(F)cn2)CC1)Nc1cn[nH]c(=O)c1C(F)(F)F [Example 684] ... > 7.00

Query block: Item under review: O=c1[nH]ncc(N2Cc3cccc(NCc4ccncc4)c3C2)c1C(F)(F)F [Example 266] . Reported pIC50?
Result block: > 7.00

Query block: Could you share which pIC50 value was measured for COc1ccc(F)c2c1CN(c1cn[nH]c(=O)c1C(F)(F)F)C2 [Example 267] ?
Result block: > 7.00

Query block: What measured pIC50 goes with N#Cc1ccc(N2CCN(C(=O)c3cccc(OCCc4cccc5c4CN(c4cn[nH]c(=O)c4C(F)(F)F)C5)c3)CC2)nc1 [Example 401] ?
Result block: > 7.00

Query block: What does the record list as pIC50 for O=c1[nH]ncc(N2Cc3cccc(NC4CCNCC4)c3C2)c1C(F)(F)F [Example 297] ?
Result block: 6.00 to 7.00

Query block: Query (compound): N#Cc1ccc(N2CCN(C(=O)c3cccc(OCCNc4cn[nH]c(=O)c4C(F)(F)F)c3)CC2)nc1 [Example 41] ; field requested: pIC50
Result block: > 7.00

Query block: May I ask what pIC50 has been recorded for N#Cc1ccc(N2CCC3(CCN(C(=O)CCOC[C@@H]4CCCN4c4cn[nH]c(=O)c4C(F)(F)F)C3)C2)nc1 (some centres unmarked) [Example 111] ?
Result block: 6.00 to 7.00

Query block: pIC50 lookup needed for N#Cc1ccc(N2CCN(C(=O)c3cccc(OC[C@@H]4c5ccccc5CN4c4cn[nH]c(=O)c4C(F)(F)F)c3)CC2)nc1 (single isomer, unassigned) [Example 18 Isomer B] , thanks.
Result block: > 7.00

Query block: Value lookup for pIC50; key = N#Cc1ccc(N2CCN(C(=O)C3CC(OC[C@@H]4CCN(c5cn[nH]c(=O)c5C(F)(F)F)C4)C3)CC2)nc1 (some centres unmarked) [Example 121A]
Result block: > 7.00

Query block: Item N#Cc1ccc(N2CCC(NC(=O)CCOC[C@@H]3CCCN3c3cn[nH]c(=O)c3C(F)(F)F)CC2)nc1 [Example 115] has what recorded pIC50?
Result block: > 7.00

Query block: Suppose we examine the compound C[C@@H](COCCC(=O)N1CCN(c2ncc(Cl)s2)CC1)Nc1cn[nH]c(=O)c1C(F)(F)F [Example 721] ; what pIC50 value has been reported?
Result block: > 7.00

Query block: Entry COC[C@@H](COCCC(=O)N1CCN(c2ncc(Cl)cn2)CC1)Nc1cn[nH]c(=O)c1C(F)(F)F [Example 558] has what pIC50?
Result block: > 7.00

Query block: Item under review: O=C(CCNC[C@H]1c2ccccc2CN1c1cn[nH]c(=O)c1C(F)(F)F)N1CCN(c2ncc(C(F)(F)F)cn2)CC1 [Example 434] . Reported pIC50?
Result block: ≤ 6.00
